- assay-protocol: qHTS Assay for Lipid Storage Modulators (AID 1519); also: % is scaled to controls: 0 for no effect and ±100 for the full control effect
- measurement-conditions: Drosophila S3 cells, BODIPY lipid droplet/cell ratio, laser cytometry; at 57.5 µM (top of the series); cells loaded with oleic acid
Results filed as inconclusive are left out.
As shown below, each of these compounds has a reported activity change, negative = inhibition value.
Numeric answer only, unit % assumed.

Examples from the recorded data:
smiles-representation: O=C(Nc1ccccc1)N1CCCC2(CCN(C(=O)c3cc(C(F)(F)F)cc(C(F)(F)F)c3)CC2)C1
activity change, negative = inhibition, %: -0.939
--
smiles-representation: CCNc1ncc2nc(C)c(=O)n(C)c2n1
activity change, negative = inhibition, %: 2.6
--
smiles-representation: COc1ccccc1-c1cncnc1NCc1cccnc1
activity change, negative = inhibition, %: 7.04

Fill in: activity change, negative = inhibition of COC(=O)N1CCC[C@@]2(CCN(C(=O)Nc3cccc(C#N)c3)C2)C1 is ___
6.94

Same again, this time with COCCn1c(=O)c(-c2cn(C)c3ccccc23)nc2cnc(Oc3cccc(Cl)c3)nc21
-4.01

# iterate: CN(C)Cc1ccccc1-c1cc(Nc2ccccc2)ncn1
4.87

What would you report for CCNc1ncc2nc(-c3ccccc3)c(=O)n(Cc3cccs3)c2n1 ?
1.76

Please answer likewise for O=C(Nc1ccccc1)N1CCC2(CC1)CCN(C(=O)c1cnccn1)CC2
6.14

// same read-out, input: O=c1c(-c2cccs2)nc2cncnc2n1Cc1ccccc1
1.03

Try this compound next: O=C(Oc1ccccc1)N1CCC2(CC1)CCN(c1ncccn1)CC2
2.83

Can you check c1nc(N2CCNCC2)c2cc(-c3ccoc3)ccc2n1 next?
3.07

###

- test-system: Cytochrome P450 1A2 (Homo sapiens)
- assay-protocol: p450-cyp1a2 (AID 410); also: potency is read from the fitted curve at half-maximal effect
- measurement-conditions: recombinant CYP1A2, luciferin-ME demethylation, luminescence; series mostly up to 57 µM
Records with an inconclusive call do not appear. The source made the active and inactive calls. The call rests on the fitted dose curve.
endpoint-name: Potency

smiles-representation: CCNc1ncc2ncc(=O)n(Cc3cccs3)c2n1
endpoint-name: Potency
measurement: 2 µM (active)

smiles-representation: O=c1cnc2cnc(Oc3cccc(Cl)c3)nc2n1C[C@H]1CCCO1
endpoint-name: Potency
measurement: 5.01 µM (active)

smiles-representation: c1nc(NC2CCNCC2)c2cc(-c3ccoc3)ccc2n1
endpoint-name: Potency
measurement: 25.1 µM (active)

smiles-representation: FC(F)(F)c1cc(CN2CCCC3(CCNCC3)C2)cc(C(F)(F)F)c1
endpoint-name: Potency
measurement: inactive

smiles-representation: N#Cc1cccc(-c2nc3cnc(N4CCOCC4)nc3n(C[C@H]3CCCO3)c2=O)c1
endpoint-name: Potency
measurement: 0.794 µM (active)

smiles-representation: Cn1c(=O)c(-c2cccs2)nc2cncnc21
endpoint-name: Potency
measurement: 1.26 µM (active)

smiles-representation: COCC(=O)N1CCC2(CC1)CCN(C(c1ccccc1)c1ccccc1)CC2
endpoint-name: Potency
measurement: inactive

smiles-representation: COC(=O)N1CCC[C@@]2(CCN(C(=O)Nc3cccc(F)c3)C2)C1
endpoint-name: Potency
measurement: 15.8 µM (active)

Name the reported Potency value associated with the compound COC(=O)N1CCC2(CC1)CN(c1ccccn1)C2
inactive

What about this compound? O=c1c(-c2ccc(F)c(F)c2)nc2cncnc2n1C1CC1
0.1 µM (active)

Also COCC(=O)N1CCC[C@@]2(CCN(C(=O)Nc3cccc(C#N)c3)C2)C1 , if possible.
inactive

Try this compound next: CN(Cc1ccco1)c1ncncc1-c1cccc(C#N)c1
12.6 µM (active)

Follow-up item: O=C(c1cc(C(F)(F)F)cc(C(F)(F)F)c1)N1CCC2(CCCN(Cc3nccs3)C2)CC1
inactive

Same read-out for CN(C)C(=O)c1ccc(-c2ccc3ncnc(N(C)C)c3c2)cc1 ?
20 µM (active)

Same thing, different compound: c1nc(N2CCNCC2)c2cc(-c3ccc4c(c3)OCO4)ccc2n1
2 µM (active)

Note, next up: Cc1noc(C)c1C(=O)N1CCC2(CCN(Cc3cc(C(F)(F)F)cc(C(F)(F)F)c3)CC2)CC1
inactive
